Here, each record is paired with measured pIC50 data.
Target: Integrin alpha-5/beta-1 (Homo sapiens, UniProt P05556+P08648)
Assay: Inhibition of fibronectin binding to human Integrin alpha5beta1 receptor by competitive ELISA
# pIC50 = -log10(concentration in molar units)

In the examples that follow, each entry is paired with its recorded pIC50.
NCCCC[C@@H]1NC(=O)[C@H](CCCN=C(N)N)NC(=O)CNC(=O)C[C@@H](C(=O)O)NC(=O)[C@@H](c2ccccc2)NC1=O: 7.03
NC(N)=NCCC[C@@H]1NC(=O)CNC(=O)C[C@@H](C(=O)O)NC(=O)[C@@H](c2ccccc2)NC(=O)[C@@H](CCC(=O)O)NC1=O: 7.96

Consider "NC(N)=NCCC[C@@H]1NC(=O)CNC(=O)C[C@@H](C(=O)O)NC(=O)[C@@H](c2ccccc2)NC(=O)[C@H](Cc2ccc(O)cc2)NC1=O" . Its measured pIC50 is 7.41

Recorded result, "N=C(N)NCCC[C@@H]1NC(=O)[C@H](CCCCN)NC(=O)[C@@H](Cc2ccccc2)NC(=O)[C@H](CC(=O)O)NC(=O)CNC1=O" , pIC50: 6.88

---

A collection of compounds and their measured IC50
Biological target: Integrin alpha-5/beta-1 (Homo sapiens, UniProt P05556+P08648)
Experiment: Inhibition of fibronectin binding to human Integrin alpha5beta1 receptor by competitive ELISA
The answer is to be given in nM; state only the numeric part.

Reference set (2 entries):
N=C(N)NCCC[C@@H]1NC(=O)CNC(=O)C[C@@H](C(=O)O)NC(=O)[C@@H](c2ccccc2)NC(=O)[C@@H](CCCCNC(=O)CCSCCOCCOCCOCCOCCOCCOCCO)NC1=O: 27
N=C(N)NCCC[C@@H]1NC(=O)CNC(=O)C[C@@H](C(=O)O)NC(=O)[C@@H](c2ccccc2)NC(=O)[C@H]2CCCN2C1=O: 7

Summary for this compound, "NC(N)=NCCC[C@@H]1NC(=O)CNC(=O)C[C@@H](C(=O)O)NC(=O)[C@@H](c2ccccc2)NC(=O)[C@@H](Cc2c[nH]c3ccccc23)NC1=O" : IC50 is 5.5

---

Entries annotated with measured pIC50
Target: Integrin alpha-V/beta-3 (Homo sapiens, UniProt P05106+P06756)
Test: Inhibition of vitronectin binding to Integrin alphaVbeta3 receptor (unknown origin) by competitive ELISA
pIC50: −log10 of the molar value.

Check out these entries, answers already filled in.
CC(C)[C@@H]1NC(=O)[C@H](CCCN=C(N)N)NC(=O)CNC(=O)C[C@@H](C(=O)O)NC(=O)[C@@H](c2ccccc2)NC1=O: 6.24
NC(N)=NCCC[C@@H]1NC(=O)CNC(=O)C[C@@H](C(=O)O)NC(=O)[C@@H](c2ccccc2)NC(=O)[C@@H](CCC(=O)O)NC1=O: < 5.00
NC(N)=NCCC[C@@H]1NC(=O)CNC(=O)C[C@@H](C(=O)O)NC(=O)[C@@H](c2ccccc2)NC(=O)[C@H](Cc2c[nH]c3ccccc23)NC1=O: < 5.00

Observed pIC50 on Integrin alpha-V/beta-3 (Homo sapiens, UniProt P05106+P06756), entry "CC(C)[C@H]1NC(=O)[C@H](CCCN=C(N)N)NC(=O)CNC(=O)C[C@@H](C(=O)O)NC(=O)[C@@H](c2ccccc2)NC1=O" , equals < 5.00
